Recorded values, source ChEMBL document CHEMBL1151692.

Entries annotated with measured Activity
target: Peptidylglycine alpha-amidating monooxygenase (Rattus norvegicus); assay: Ratio of Vm(app) to Km(app) for rat recombinant peptidylglycine alpha-amidating monooxygenase relative to hippuric acid
Where a SMILES comes first, the peptide text is derived from it. The star is where a group is joined. Boc = CC(C)(C)OC(=O)*
API doc: respond with a numeric literal and nothing else, no unit.

Illustrative cases are given below, each with its answer.
CC(Cc1ccccc1)C(=O)NCC(=O)O (centres undefined); 0.69
O=C(O)CNC(=O)CCCCCc1ccccc1; 32
Cc1ccc(C(=O)NCC(=O)O)cc1; 0.5
O=C(O)CNC(=O)c1cccnc1; 0.7
O=C(O)CNC(=O)CCCc1ccccc1; 11
O=C(O)CNC(=O)c1ccc([N+](=O)[O-])cc1; 1.4

Please fill in: Activity reported for O=C(O)CNC(=O)c1ccco1 = 0.5

Please fill in: Activity reported for CC(C)(C)OC(=O)NCC(=O)NCC(=O)O (Boc-Gly-Gly-OH) = 4

Please fill in: Activity reported for O=C(O)CNC(=O)CSc1ccccc1 = 4

Please fill in: Activity reported for O=C(O)CNC(=O)/C=C/c1ccco1 = 0.45

Please fill in: Activity reported for O=C(O)CNC(=O)OCc1ccccc1 = 2.4

Please fill in: Activity reported for Nc1ccccc1C(=O)NCC(=O)O = 0.5

Please fill in: Activity reported for CC(=O)NCC(=O)NCC(=O)O = 1

Please fill in: Activity reported for O=C(O)CNC(=O)c1c(F)cccc1F = 0.04

###

Entries annotated with measured Vmax(app)
target: Peptidylglycine alpha-amidating monooxygenase (Rattus norvegicus) (UniProt P14925); test: Activity of rat recombinant peptidylglycine alpha-amidating monooxygenase assessed as stimulation of oxygen consumption
Sequence (P14925 whole entry): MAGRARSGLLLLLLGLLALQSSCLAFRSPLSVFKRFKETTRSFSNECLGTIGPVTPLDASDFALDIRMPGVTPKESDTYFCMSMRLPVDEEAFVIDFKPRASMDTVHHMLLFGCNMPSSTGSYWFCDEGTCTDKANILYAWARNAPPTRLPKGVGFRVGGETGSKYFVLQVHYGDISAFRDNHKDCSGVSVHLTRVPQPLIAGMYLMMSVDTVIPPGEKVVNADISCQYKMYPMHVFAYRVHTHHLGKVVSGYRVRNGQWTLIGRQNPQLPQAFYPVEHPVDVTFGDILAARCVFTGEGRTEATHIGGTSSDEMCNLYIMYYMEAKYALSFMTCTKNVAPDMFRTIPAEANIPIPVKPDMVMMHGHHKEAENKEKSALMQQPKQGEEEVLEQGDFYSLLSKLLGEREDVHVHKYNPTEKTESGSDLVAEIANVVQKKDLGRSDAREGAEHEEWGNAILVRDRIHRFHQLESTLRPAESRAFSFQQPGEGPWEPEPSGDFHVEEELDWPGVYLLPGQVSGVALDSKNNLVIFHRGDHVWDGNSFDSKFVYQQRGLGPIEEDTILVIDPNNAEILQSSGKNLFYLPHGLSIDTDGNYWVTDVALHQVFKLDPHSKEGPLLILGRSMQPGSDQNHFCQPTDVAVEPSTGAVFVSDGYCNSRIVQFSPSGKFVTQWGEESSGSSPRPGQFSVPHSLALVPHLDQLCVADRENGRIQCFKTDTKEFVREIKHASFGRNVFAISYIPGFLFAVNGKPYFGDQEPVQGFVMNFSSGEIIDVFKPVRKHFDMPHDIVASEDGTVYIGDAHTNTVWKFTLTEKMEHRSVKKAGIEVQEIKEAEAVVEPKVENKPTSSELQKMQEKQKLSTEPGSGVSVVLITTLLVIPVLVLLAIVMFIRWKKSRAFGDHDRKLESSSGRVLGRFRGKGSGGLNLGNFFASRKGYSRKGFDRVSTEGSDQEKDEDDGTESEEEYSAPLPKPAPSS
Where a SMILES comes first, the peptide text is derived from it. The star is where a group is joined. Bz = O=C(c1ccccc1)*
Give a bare numeral; the unit s⁻¹ is implied.

Illustrative cases are given below, each with its answer.
O=C(O)CNC(=O)CCCc1ccccc1; 11
Nc1ccc(C(=O)NCC(=O)O)cc1; 5.6
O=C(O)CNC(=O)CCCCCc1ccccc1; 11
O=C(O)CNC(=O)/C=C/c1ccco1; 3.4
O=C(O)CNC(=O)CCCCc1ccccc1; 12
O=C(O)CNC(=O)c1ccccc1O; 4.9

Please fill in: Vmax(app) reported for O=C(O)CNC(=O)c1ccc(O)cc1 = 5.8

Please fill in: Vmax(app) reported for O=C(O)CNC(=O)CNC(=O)CNC(=O)c1ccccc1 (Bz-Gly-Gly-Gly-OH) = 8.8

Please fill in: Vmax(app) reported for O=C(O)CNC(=S)CCc1ccccc1 = 1.6

Please fill in: Vmax(app) reported for Nc1ccccc1C(=O)NCC(=O)O = 4.2

Please fill in: Vmax(app) reported for COc1ccc(C(=O)NCC(=O)O)cc1 = 5.3

Please fill in: Vmax(app) reported for O=C(O)CNC(=O)c1c(F)cccc1F = 4.3

Please fill in: Vmax(app) reported for CCc1ccc(C(=O)NCC(=O)O)cc1 = 3.6

Please fill in: Vmax(app) reported for CC(C)(C)OC(=O)NCC(=O)O = 6.3

###

target: Peptidylglycine alpha-amidating monooxygenase (Rattus norvegicus) (UniProt P14925); assay: Ratio of Vm(app) to Km(app) for rat recombinant peptidylglycine alpha-amidating monooxygenase relative to hippuric acid
measurement name: Activity

O=C(O)CNC(=O)CCc1ccccc1; 1.8
O=C(O)CNC(=O)C1CC1c1ccccc1 (configuration not stated); 1.8
O=C(O)CNC(=O)c1cccs1; 1
Cc1cccc(C(=O)NCC(=O)O)c1; 0.8
O=C(O)CNC(=O)CNC(=O)c1ccc([N+](=O)[O-])cc1; 12

Proceeding to the next compound to report its Activity.
Please fill in: Activity reported for O=C(O)CNC(=O)c1ccc(Br)cc1 = 0.8
